The origin of these recorded values is the RNAGym collection of RNA variant scans (doi:10.7554/elife.80360).

# self-cleavage listing for each entry below
B1: Twister Ribozyme (parent)
chain: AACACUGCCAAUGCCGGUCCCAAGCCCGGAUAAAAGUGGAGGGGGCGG

- Variants of: B1
- protocolNotes: self-cleavage, relative activity (ratio to wild type); higher = more cleavage; co-transcriptional
The response must contain the number and no unit.

Here are 5 variants together with their reported answers.
[[record]]
recordsequence = "AACACUGCCAAUGCCGGUACCAAGCCCGGAUAAAAGUGUAGGGGGCGG [C19A G39U]"
reportedmetric = "self-cleavage"
observedvalue = 0.124

[[record]]
recordsequence = "AACACUGCCAAUGCCAGUCCCAAGCCCGGAUAAAAGUGGAGGGGACGG [G16A G45A]"
reportedmetric = "self-cleavage"
observedvalue = 0.891

[[record]]
recordsequence = "AACACUGCCAAUGCCGGUCCCAAGACCGGAUAAAAGUGGAGGGGCCGG [C25A G45C]"
reportedmetric = "self-cleavage"
observedvalue = 0.0975

[[record]]
recordsequence = "AACACUGCCAAUACCGGUCCCAAGCCCGGAUAAAAGUGGAGGGGGCGA [G13A G48A]"
reportedmetric = "self-cleavage"
observedvalue = 0.659

[[record]]
recordsequence = "AACACUGCCAAUGCCGGUCCCAAGCCCGGAUAAAAGAGGAGGGGGCUG [U37A G47U]"
reportedmetric = "self-cleavage"
observedvalue = 0.702


Requested field: self-cleavage. Item: AACACUGCCAAUGCCGGUCCCAAGCCCGGAUAAAAAUGGAGGGGGCGG [G36A]
0.843

Can you look up the measured self-cleavage of AACACUUCCAAUGCCGGUCCCAAGCCGGGAUAAAAGUGGAGGGGGCGG [G7U C27G] for me?
0.0829

Name the recorded self-cleavage for AAGACUGCCAAUGCCGGUCCCAAGCCCGGAUAAAAGUGGGGGGGGCGG [C3G A40G] .
0.111

Name the reported self-cleavage value associated with the variant AACACUGCCAAUGCCGGACCCAAGCCCGGAUAAAACUGGAGGGGGCGG [U18A G36C]
0.0768

self-cleavage for AAGACUGCCAAUGCCGGUGCCAAGCCCGGAUAAAAGUGGAGGGGGCGG [C3G C19G] ?
0.107

Which self-cleavage value belongs to AACACUGCCAAUGCCGGUCCCAAGCCCGGAUAAAAGUGCAGGGGGGGG [G39C C46G] ?
0.126

I have this variant here, AACACUGCCAAUGGCGGUCCCAAGCCCCGAUAAAAGUGGAGGGGGCGG [C14G G28C] , and I need its recorded self-cleavage.
0.106

Record request: self-cleavage value, item AACGCUGCCAAUGCCGGUCCCAAGUCCGGAUAAAAGUGGAGGGGGCGG [A4G C25U]
0.595

Recorded self-cleavage for AACACUGCCAAUGCCGGUCCCAAGCCCGGAUAAAAGUGGAGCCGGCGG [G42C G43C] , please?
0.365

What measured self-cleavage goes with AACACUGCCAAGGCCGGUCCCAAGCCAGGAUAAAAGUGGAGGGGGCGG [U12G C27A] ?
0.373

Value lookup for self-cleavage; key = AACACCGCUAAUGCCGGUCCCAAGCCCGGAUAAAAGUGGAGGGGGCGG [U6C C9U]
0.0507

Entry AACACUGCCAAUGCCGGUCCCAAUACCGGAUAAAAGUGGAGGGGGCGG [G24U C25A] has what self-cleavage?
0.115

What value of self-cleavage has been recorded for this entry: ACCACUGCCAAUGCCGGUCCCAAGCCCGGAUAAAAGUUGAGGGGGCGG [A2C G38U]
0.0613

So what does the record say about self-cleavage for CACACUGUCAAUGCCGGUCCCAAGCCCGGAUAAAAGUGGAGGGGGCGG [A1C C8U] ?
0.193
